- test_target: Rhodesain (Trypanosoma brucei rhodesiense)
- procedure_summary: Inhibition of recombinant Trypanosoma brucei rhodesain expressed in Pichia pastoris at 5 uM using Z-FR-AMC as substrate preincubated for 10 mins followed by substrate addition and measured at 12 sec interval for 5 mins by fluorimetric analysis relative to control
- condition_info: time 15.0 min
Assign fulfilled whenever inhibition does not fall below 70%; assign not fulfilled whenever it does.

### Prompt Is the recorded value of inhibition equal to or greater than 70% for this compound? CC(O)(c1ccc(Cl)cc1)C(CN1CCCCC1)c1ccccc1 (stereo unspecified)
### Response not fulfilled

### Prompt Now consider `CCOc1cccc(C(=O)Nc2ccc(-c3nc4ccccc4[nH]3)cc2)c1` and answer again.
### Response fulfilled

### Prompt Now consider CCOc1cc(CNC(C)C(O)c2ccccc2)cc(Cl)c1OCC (stereo unspecified) and answer again.
### Response not fulfilled

### Prompt Now consider COCCNCC(O)Cn1c2ccc(Cl)cc2c2cc(Cl)ccc21 (stereo unspecified) and answer again.
### Response not fulfilled

### Prompt Now consider `CCOc1ccc(/C=C/c2nc(=O)c3ccccc3o2)cc1` and answer again.
### Response not fulfilled

### Prompt Now consider COc1cccc(C(=O)NC(c2ccc(C)cc2)c2cc(Cl)c3cccnc3c2O)c1 (stereo unspecified) and answer again.
### Response not fulfilled

### Prompt Now consider `CCCOCc1cc(CN2CCN(c3cccc(Cl)c3)CC2)c(O)c2ncccc12` and answer again.
### Response fulfilled

### Prompt Now consider `Cn1c(=O)n(C)c2cc(CNCCNc3ccnc4cc(Cl)ccc34)ccc21` and answer again.
### Response fulfilled

### Prompt Now consider O=C(O)C1Cc2c([nH]c3ccccc23)C(c2ccc(Cl)cc2Cl)N1 (stereo unspecified) and answer again.
### Response fulfilled

### Prompt Now consider COc1ccc(Br)cc1C1Nc2ccc3ccccc3c2C2=C1C(=O)CC(c1ccccc1)C2 (stereo unspecified) and answer again.
### Response fulfilled

* * *

- test_target: Cruzipain (Trypanosoma cruzi) (UniProt P25779)
- Sequence (P25779 123-467 limits assumed): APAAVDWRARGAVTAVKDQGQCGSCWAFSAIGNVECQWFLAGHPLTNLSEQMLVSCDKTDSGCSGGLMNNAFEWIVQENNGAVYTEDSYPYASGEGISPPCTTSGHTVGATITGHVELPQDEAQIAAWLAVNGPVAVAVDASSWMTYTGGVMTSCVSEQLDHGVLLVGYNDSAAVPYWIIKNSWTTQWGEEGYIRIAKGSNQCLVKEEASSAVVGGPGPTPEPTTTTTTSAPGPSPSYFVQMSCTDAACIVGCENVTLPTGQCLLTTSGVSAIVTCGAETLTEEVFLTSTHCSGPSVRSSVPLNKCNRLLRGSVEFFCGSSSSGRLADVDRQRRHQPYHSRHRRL
- procedure_summary: Inhibition of recombinant Trypanosoma cruzi cruzain at 10 uM using Z-FR-AMC as substrate preincubated for 10 mins followed by substrate addition and measured at 12 sec interval for 5 mins by fluorimetric analysis relative to control
- condition_info: time 15.0 min
Would you kindly list inhibition for each of these compounds?

### Prompt Could you tell me which inhibition is on file for `CC(=O)c1ccc(NC(=O)CSc2nc(-c3ccccc3Cl)ns2)cc1` ?
### Response 23%

### Prompt Now consider `FC(F)(F)c1cccc(CNC2CCN(CCc3ccccc3)CC2)c1` and answer again.
### Response 6%

### Prompt Now consider `COCCNC(=O)c1ccc(OC2CCN(Cc3ccc(F)c(F)c3)CC2)c(Cl)c1` and answer again.
### Response 66%

* * *

- test_target: Rhodesain (Trypanosoma brucei rhodesiense) (UniProt Q95PM0)
- Sequence (Q95PM0 1-450): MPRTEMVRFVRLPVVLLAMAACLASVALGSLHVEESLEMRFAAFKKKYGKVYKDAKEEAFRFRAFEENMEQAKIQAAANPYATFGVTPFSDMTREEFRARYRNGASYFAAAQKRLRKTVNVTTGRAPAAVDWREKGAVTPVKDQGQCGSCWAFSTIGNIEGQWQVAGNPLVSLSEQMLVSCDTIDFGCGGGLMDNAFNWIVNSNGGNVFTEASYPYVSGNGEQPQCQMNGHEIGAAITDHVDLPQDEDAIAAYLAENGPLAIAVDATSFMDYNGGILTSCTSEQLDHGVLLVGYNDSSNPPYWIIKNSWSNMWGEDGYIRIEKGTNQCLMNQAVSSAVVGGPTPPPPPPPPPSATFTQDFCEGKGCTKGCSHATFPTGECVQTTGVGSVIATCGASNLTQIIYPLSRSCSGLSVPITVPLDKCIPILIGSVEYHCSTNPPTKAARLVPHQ
- procedure_summary: Inhibition of recombinant Trypanosoma brucei rhodesain expressed in Pichia pastoris at 10 uM using Z-FR-AMC as substrate preincubated for 10 mins followed by substrate addition and measured at 12 sec interval for 5 mins by fluorimetric analysis relative to control
- condition_info: time 15.0 min
Assign Y whenever inhibition does not fall below 8%; assign N whenever it does.

### Prompt Is the recorded value of inhibition equal to or greater than 8% for this compound? `c1ccc(CNc2nc(Nc3ccccc3)nc3ccccc23)cc1`
### Response Y

### Prompt Now consider `CCOc1cccc(C(=O)Nc2ccc(-c3nc4ccccc4[nH]3)cc2)c1` and answer again.
### Response Y

### Prompt Now consider `CCOc1ccc(/C=C/c2nc(=O)c3ccccc3o2)cc1` and answer again.
### Response N

### Prompt Now consider `Cc1nc2ccccc2c(O)c1CC=C(Cl)Cl` and answer again.
### Response N

### Prompt Now consider COCCNCC(O)Cn1c2ccc(Cl)cc2c2cc(Cl)ccc21 (stereo unspecified) and answer again.
### Response N

### Prompt Now consider `CC(=O)c1ccc(NC(=O)CSc2nc(-c3ccccc3Cl)ns2)cc1` and answer again.
### Response Y

### Prompt Now consider `COCCNC(=O)c1ccc(OC2CCN(Cc3ccc(F)c(F)c3)CC2)c(Cl)c1` and answer again.
### Response Y

### Prompt Now consider `c1ccc(-c2ccc(-c3nc4ccccc4[nH]3)cc2)cc1` and answer again.
### Response Y

### Prompt Now consider `Cn1c(=O)n(C)c2cc(CNCCNc3ccnc4cc(Cl)ccc34)ccc21` and answer again.
### Response Y

### Prompt Now consider `COc1ccc2sc(N(Cc3cccnc3)C(=O)c3ccc(C#N)cc3)nc2c1` and answer again.
### Response Y
